Molecular target: T1, human GITR-Fc (human, UniProt Q9Y5U5 26-162, conjugated with europium cryptate in the HTRF assays)
T1 construct: also called hGITR-Fc; hGITRFc; not shown: Fc domain of hIgG1
T1 sequence: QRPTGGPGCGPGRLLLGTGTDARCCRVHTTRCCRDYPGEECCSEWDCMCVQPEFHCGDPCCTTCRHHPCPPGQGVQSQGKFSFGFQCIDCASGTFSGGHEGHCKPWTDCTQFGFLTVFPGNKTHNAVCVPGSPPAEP
Experiment: HTRF direct binding, Eu cryptate hGITR-Fc and anti-FLAG XL665, one site saturation fit
The binders listed here are annotated with their pKd.
By convention, pKd is the negative base-10 log of a molar concentration.

Problem: For the binder hGITRL FP N129A/N161D (Fc fusion, not shown: detection with anti-FLAG antibody implies a FLAG e) LQLETAKEPCMAKFGPLPSKWQMASSEPPCVNKVSDWKLEILQNGLYLIYGQVAPNANYNDVAPFEVRLYKNKDMIQTLTAKSKIQNVGGTYELHVGDTIDLIFNSEHQVLKDNTYWGIILLANPQFIS , what pKd is on record?
Result: 7.93

Problem: Repeat for the following binder: hGITRL FP N129A (Fc fusion, also called N129A mutated hGITRL FP; not shown: detection with anti-FLAG antibody implies a FLAG e) LQLETAKEPCMAKFGPLPSKWQMASSEPPCVNKVSDWKLEILQNGLYLIYGQVAPNANYNDVAPFEVRLYKNKDMIQTLTAKSKIQNVGGTYELHVGDTIDLIFNSEHQVLKNNTYWGIILLANPQFIS
Result: 8.42

Problem: Repeat for the following binder: hGITRL FP N161D (Fc fusion, not shown: detection with anti-FLAG antibody implies a FLAG e) QLETAKEPCMAKFGPLPSKWQMASSEPPCVNKVSDWKLEILQNGLYLIYGQVAPNANYNDVAPFEVRLYKNKDMIQTLTNKSKIQNVGGTYELHVGDTIDLIFNSEHQVLKDNTYWGIILLANPQFIS
Result: 8.97

Okay, next one:
Problem: For the binder hGITRL FP wt (Fc fusion, not shown: detection with anti-FLAG antibody implies a FLAG e) QLETAKEPCMAKFGPLPSKWQMASSEPPCVNKVSDWKLEILQNGLYLIYGQVAPNANYNDVAPFEVRLYKNKDMIQTLTNKSKIQNVGGTYELHVGDTIDLIFNSEHQVLKNNTYWGIILLANPQFIS , what pKd is on record?
Result: 8.91
